Measured IC50, listed per entry.
Target: cathepsin D isolated from the human liver (Homo sapiens (Human))
Sequence (P07339 65-161): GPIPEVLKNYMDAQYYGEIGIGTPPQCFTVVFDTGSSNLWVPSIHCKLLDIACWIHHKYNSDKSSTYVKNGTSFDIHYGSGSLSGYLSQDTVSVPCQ
Sequence (P07339 169-412): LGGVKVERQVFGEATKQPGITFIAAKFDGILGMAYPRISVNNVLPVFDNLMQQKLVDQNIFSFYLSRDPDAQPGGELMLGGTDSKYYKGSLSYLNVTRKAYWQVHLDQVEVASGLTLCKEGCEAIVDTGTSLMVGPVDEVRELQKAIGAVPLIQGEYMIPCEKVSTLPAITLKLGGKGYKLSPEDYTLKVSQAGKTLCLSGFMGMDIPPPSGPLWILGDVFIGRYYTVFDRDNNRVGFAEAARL
Assay: In-vitro fluorescence assay for identification of cathepsin D inhibitors
Details: human liver cathepsin D 1.4 nM, pH 5.5, substrate 5 μM; read-out: Cath D IC50
assay.metric: IC50

INSERT INTO results (compound, target_desc, recorded_measurement) VALUES
  ('NC1=Nc2cc(C(=O)N3CCOc4ccccc43)ccc2CN1C1Cc2ccccc2C1 [Compound A30]', 'cathepsin D isolated from the human liver (Homo sapiens (Human))', '240 nM'),
  ('CCN(CC)C(=O)c1ccc2c(c1)N=C(N)N(C1Cc3ccccc3C1)C2 [Compound A24]', 'cathepsin D isolated from the human liver (Homo sapiens (Human))', '4200 nM'),
  ('NC1=Nc2cc(C(F)(F)F)ccc2CN1C1c2ccccc2-c2ccccc21 [Compound A15]', 'cathepsin D isolated from the human liver (Homo sapiens (Human))', '1200 nM'),
  ('COc1ccc2c(c1OC)CC(N1Cc3ccc(Cl)cc3N=C1N)C2 (stereo not drawn) [Compound A11]', 'cathepsin D isolated from the human liver (Homo sapiens (Human))', '780 nM'),
  ('COc1ccc2c(c1)C[C@H](N1Cc3ccc(C(F)(F)F)cc3N=C1N)C2 (single isomer, unassigned) [Compound A19]', 'cathepsin D isolated from the human liver (Homo sapiens (Human))', '320 nM'),
  ('CCc1ccc2c(c1)N=C(N)N(C1Cc3ccc(OC)cc3C1)C2 (stereo not drawn) [Compound A17]', 'cathepsin D isolated from the human liver (Homo sapiens (Human))', '270 nM'),
  ('NNc1nc2cc(C(F)(F)F)ccc2c(=O)n1C1Cc2ccccc2C1 [Compound A28]', 'cathepsin D isolated from the human liver (Homo sapiens (Human))', '24000 nM'),
  ('NC1=Nc2cc(C(=O)N3CCCC3Cc3ccccc3)ccc2CN1C1Cc2ccccc2C1 (stereo not drawn) [Compound A29]', 'cathepsin D isolated from the human liver (Homo sapiens (Human))', '310 nM'),
  ('NC1=Nc2cc(C(=O)N3CCc4ccccc43)ccc2CN1C1Cc2ccccc2C1 [Compound A21]', 'cathepsin D isolated from the human liver (Homo sapiens (Human))', '220 nM'),
  ('COc1cccc2c1CC(N1Cc3ccc(Cl)cc3N=C1N)C2 (stereo not drawn) [Compound A12]', 'cathepsin D isolated from the human liver (Homo sapiens (Human))', '810 nM'),
  ('NC1=Nc2ccccc2CN1C1Cc2ccccc2C1 [Compound A2]', 'cathepsin D isolated from the human liver (Homo sapiens (Human))', '2300 nM'),
  ('NC1=Nc2cc(Cl)ccc2CN1C1CCCc2ccccc21 (stereo not drawn) [Compound A6]', 'cathepsin D isolated from the human liver (Homo sapiens (Human))', '1400 nM'),
  ('NC1=Nc2cc(C(F)(F)F)ccc2CN1C1Cc2ccccc2C1 [Compound A10]', 'cathepsin D isolated from the human liver (Homo sapiens (Human))', '300 nM'),
  ('CCN(CC)C(=O)c1ccc2c(c1)N=C(N)N(C1Cc3ccccc3C1)C2 [Compound A23]', 'cathepsin D isolated from the human liver (Homo sapiens (Human))', '2900 nM'),
  ('CO[C@@H]1c2ccccc2C[C@@H]1N1Cc2ccc(C(F)(F)F)cc2NC1=N [Compound A31]', 'cathepsin D isolated from the human liver (Homo sapiens (Human))', '2500 nM'),
  ('CCCc1ccc2c(c1)N=C(N)N(C1Cc3ccccc3C1)C2 [Compound A7]', 'cathepsin D isolated from the human liver (Homo sapiens (Human))', '140 nM'),
  ('COc1cc2c(cc1OC)CC(N1Cc3ccc(Cl)cc3N=C1N)C2 [Compound A8]', 'cathepsin D isolated from the human liver (Homo sapiens (Human))', '1100 nM'),
  ('COc1ccc2c(c1)CC(N1Cc3ccc(C(F)(F)F)cc3N=C1N)C2 (racemic) [Compound A16]', 'cathepsin D isolated from the human liver (Homo sapiens (Human))', '170 nM');
